Attribution: patent US20170173151A1

- target-system: T1, HisCD74v1 (recombinant extracellular domain of human CD74 variant 1, N-terminal hexameric His tag) (human, UniProt P04233 73-296)
- T1 construct: also called recombinant CD74v1; CD74v1 extracellular domain
- T1 sequence: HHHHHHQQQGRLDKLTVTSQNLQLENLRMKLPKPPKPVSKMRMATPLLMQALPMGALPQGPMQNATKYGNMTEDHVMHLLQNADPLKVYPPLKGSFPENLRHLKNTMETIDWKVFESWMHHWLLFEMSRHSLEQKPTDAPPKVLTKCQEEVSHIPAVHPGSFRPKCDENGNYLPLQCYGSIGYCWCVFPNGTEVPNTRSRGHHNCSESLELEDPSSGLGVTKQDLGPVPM
- experimental-protocol: ELISA, coated recombinant CD74v1 extracellular domain (CD74ECDHis); mean of four experiments
In this section, each of the binders is paired with its reported EC50.
Report the value in µg/mL with no unit label.

Before answering, review these 3 worked examples.
1) HuMab-CD74-005 (antibody, human IgG1, V domains shown, Human IgG1,kappa; produced transiently in HEK-293F cells; also called antibody 005) VH: QVQLVESGGGVVQPGRSLRLSCAASGFTFSSYAMHWVRQAPGKGLEWVAVISYDGSNKYYADSVKGRFTISRDNSKNTLYLQMNSLRAEDTAVYYCASGRYYGSGSYSSYFDYWGQGTLVTVSS VL: DIQMTQSPSSLSASVGDRVTITCRASQGISSWLAWFQQKPEKAPKSLIYAASSLQSGVPSRFSGSGSGTDFTLTISSLQPEDFATYYCQQYNSYPLTFGGGTKVEIK    0.03
2) HuMab-CD74-006-mcMMAF (antibody, IgG1, V domains shown, drug-linker mcMMAF alkylated to the cysteines of the reduced antibody (DAR 3.7-4.1), Antibody-drug conjugate of HuMab-CD74-006 (IgG1,kappa)) VH: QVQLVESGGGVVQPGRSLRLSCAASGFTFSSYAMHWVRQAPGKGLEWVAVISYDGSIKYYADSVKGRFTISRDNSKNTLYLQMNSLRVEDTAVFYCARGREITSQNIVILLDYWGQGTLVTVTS VL: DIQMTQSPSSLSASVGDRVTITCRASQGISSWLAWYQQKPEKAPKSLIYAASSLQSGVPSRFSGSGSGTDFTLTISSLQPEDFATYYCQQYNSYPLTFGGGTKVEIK    0.02
3) HuMab-CD74-011 (antibody, human IgG1, V domains shown, Human IgG1,kappa antibody produced transiently in HEK-293F cells; also called antibody 011) VH: QVQLVESGGGVVQPGRSLRLSCAASGFTFSSYGMHWVRQAPDKGLEWVAVIWYDGSNKYYADSVKGRFTISRDNSKNTLYLQMNSLRAEDTAVYYCARGGTLVRGAMYGTDVWGQGTTVTVSS VL: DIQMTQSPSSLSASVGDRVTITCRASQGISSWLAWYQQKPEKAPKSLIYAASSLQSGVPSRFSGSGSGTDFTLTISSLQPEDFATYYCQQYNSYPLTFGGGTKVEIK    0.02

Alright, here's another binder for you.
Q. Assign EC50 to the following record: HuMab-CD74-006-vcMMAE (antibody, IgG1, V domains shown, drug-linker vcMMAE alkylated to the cysteines of the reduced antibody (DAR 4.0), Antibody-drug conjugate of HuMab-CD74-006 (IgG1,kappa); also called vcMMAE-conjugated HuMab-CD74-006) VH: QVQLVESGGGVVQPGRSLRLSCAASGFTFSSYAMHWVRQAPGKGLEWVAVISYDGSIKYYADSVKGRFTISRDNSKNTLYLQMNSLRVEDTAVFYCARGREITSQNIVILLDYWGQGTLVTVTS VL: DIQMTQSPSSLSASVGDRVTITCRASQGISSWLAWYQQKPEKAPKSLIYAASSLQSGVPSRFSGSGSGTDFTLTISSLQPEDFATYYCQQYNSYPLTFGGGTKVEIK
A. 0.03
